# Tested System: Mycobacterium thermoresistible (Mtr) LpqY (Mycolicibacterium thermoresistibile, UniProt G7CES0)
# Sequence (G7CES0 29-471): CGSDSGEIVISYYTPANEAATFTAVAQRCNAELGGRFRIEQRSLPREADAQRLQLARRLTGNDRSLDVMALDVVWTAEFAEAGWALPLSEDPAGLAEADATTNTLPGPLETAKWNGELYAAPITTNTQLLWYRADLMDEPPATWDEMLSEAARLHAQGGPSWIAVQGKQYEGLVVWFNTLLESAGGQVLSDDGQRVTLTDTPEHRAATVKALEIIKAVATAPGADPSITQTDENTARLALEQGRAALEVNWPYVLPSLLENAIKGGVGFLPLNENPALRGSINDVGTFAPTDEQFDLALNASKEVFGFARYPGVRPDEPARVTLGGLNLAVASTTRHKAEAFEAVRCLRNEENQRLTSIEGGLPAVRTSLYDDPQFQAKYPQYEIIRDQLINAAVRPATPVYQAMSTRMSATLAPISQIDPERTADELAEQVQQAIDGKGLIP
# Assay type: binding
# Assay Context: MST re-evaluation of hits against LpqY
Measured Hit validation Binding score, listed per entry for reference.
Give a plain numeric answer without units written out.

[
  {
    "Molecule": "CNC(=O)C1Cc2c([nH]c3cc(Cl)ccc23)C2(CCN(CCc3ccccc3)CC2)N1 (centres unmarked)",
    "Observed Result": 3.7
  },
  {
    "Molecule": "OC[C@H]1O[C@H](O[C@H]2O[C@H](CO)[C@@H](O)[C@H](O)[C@H]2O)[C@H](O)[C@@H](O)[C@@H]1O [Trehalose, α-D-glucopyranosyl-α-D-glucopyranoside, reference compound]",
    "Observed Result": 8.3
  },
  {
    "Molecule": "O=C(NCCc1c[nH]c2ccccc12)c1cc2ccccc2oc1=O",
    "Observed Result": 6.4
  },
  {
    "Molecule": "Nc1cccnc1Nc1ccc(Cl)cc1",
    "Observed Result": 12.2
  }
]

In the following, a different molecule is considered.
The molecule `COc1cc(C2=NCCN2)cc2cc(-c3ccc(C4=NCCN4)cc3)oc12` showed Hit validation Binding score equal to 14.8
